- assayed.target: Cannabinoid receptor (Rattus norvegicus, UniProt Q9QZN9+P20272)
- test.summary: Displacement of 0.5 nM [3H](R)-(+)-WIN-55212-2 from Cannabinoid receptor of rat cerebellar membranes
- Format: cell membranes, Membrane
parameter.measured: IC50 (µM)
API: value field is a number in µM; no unit string.

Request: # lookup: IC50 of CC1=C(CCN2CCOCC2)c2ccccc2C1=Cc1cccc2ccccc12
Result: 10

Request: # lookup: IC50 of COc1ccc(/C=C2\C=C(CCN3CCOCC3)c3ccccc32)cc1OC
Result: 28

Request: # lookup: IC50 of COc1ccc(/C=C2\C=C(CCN3CCOCC3)c3ccccc32)cc1
Result: 0.058

Request: # lookup: IC50 of COc1ccc(C=C2C(C)=C(CCN3CCOCC3)c3ccccc32)cc1
Result: 45

Request: # lookup: IC50 of C1=C(CCN2CCOCC2)c2ccccc2/C1=C/c1cccc2ccccc12
Result: 1

Request: # lookup: IC50 of Oc1ccc(/C=C2\C=C(CCN3CCOCC3)c3ccccc32)c2ccccc12
Result: 97

Request: # lookup: IC50 of CSc1ccc(/C=C2\C=C(CCN3CCOCC3)c3ccccc32)cc1
Result: 96

Request: # lookup: IC50 of COc1ccc(/C=C2\C=C(CCN3CCOCC3)c3ccccc32)c2ccccc12
Result: 0.9

----------
- test.summary: Compound was tested for inhibitory activity against prostaglandin synthetase in mouse brain microsomes
parameter.measured: IC50 (µM)
API: value field is a number in µM; no unit string.

Request: # lookup: IC50 of COc1ccc(C(=O)c2c(C)n(CCN3CCOCC3)c3ccccc23)cc1
Result: 3.5

Values from ChEMBL document CHEMBL1151517
